- assayed target: CXCR7 (Homo sapiens, UniProt P25106)
- Sequence (P25106 whole entry): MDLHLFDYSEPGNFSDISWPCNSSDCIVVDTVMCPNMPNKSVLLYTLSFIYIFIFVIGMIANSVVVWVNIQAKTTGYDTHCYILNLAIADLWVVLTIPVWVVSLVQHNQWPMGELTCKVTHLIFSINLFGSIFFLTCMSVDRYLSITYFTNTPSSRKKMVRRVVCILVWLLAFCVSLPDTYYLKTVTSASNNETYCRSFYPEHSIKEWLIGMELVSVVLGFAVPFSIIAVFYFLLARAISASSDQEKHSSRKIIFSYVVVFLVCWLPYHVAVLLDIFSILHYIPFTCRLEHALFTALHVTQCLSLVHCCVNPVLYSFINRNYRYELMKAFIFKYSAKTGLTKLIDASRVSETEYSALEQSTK
- Sequence (P32121 whole entry partner): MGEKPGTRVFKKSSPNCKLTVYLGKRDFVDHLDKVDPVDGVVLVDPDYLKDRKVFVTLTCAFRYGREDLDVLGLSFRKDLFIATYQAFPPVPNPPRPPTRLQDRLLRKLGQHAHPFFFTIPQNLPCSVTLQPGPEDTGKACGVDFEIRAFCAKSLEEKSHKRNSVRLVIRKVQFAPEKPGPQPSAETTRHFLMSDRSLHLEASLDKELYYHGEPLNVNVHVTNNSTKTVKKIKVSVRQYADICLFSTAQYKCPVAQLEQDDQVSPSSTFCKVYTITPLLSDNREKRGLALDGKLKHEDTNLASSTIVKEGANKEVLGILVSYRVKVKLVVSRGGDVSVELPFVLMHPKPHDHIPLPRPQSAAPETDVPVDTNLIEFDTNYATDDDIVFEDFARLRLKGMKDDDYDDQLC
- assay text: PathHunter CHO-K1 CXCR7 b-arrestin recruitment assay (CXCR7 agonistic activity)
- applied conditions: PathHunter CHO-K1 CXCR7 b-arrestin cell line
measured quantity: EC50 (nM)

a. CCN1CCc2cccc(NCC(=O)N(CCc3ccccc3C(F)(F)F)CCN(C)C)c2C1
b. CC(C)(O)CN(Cc1ncccc1Cl)C(=O)CNc1cccc2c1CCN(CC1CC1)C2
// compare: a vs b , metric EC50, want the smaller Reply briefly: the label of your chosen item.
b

---

- assayed target: CXCR7 (Homo sapiens, UniProt P25106)
- assay text: PathHunter CHO-K1 CXCR7 b-arrestin recruitment assay (CXCR7 agonistic activity)
- applied conditions: PathHunter CHO-K1 CXCR7 b-arrestin cell line
measured quantity: EC50 (nM)

The cases that follow already have their EC50 on record.
CCC(=O)N1CCc2c(cccc2NCC(=O)N(CCN(C)C)Cc2ccccc2Cl)C1 : 11
COc1ccc2c(c1NCC(=O)N(CCN(C)C)Cc1ccccc1C(F)(F)F)CCN(CC1CC1)C2 : 8
CC(C)CCN(Cc1ccccc1)C(=O)COc1cccc2c1CCN(CC1CC1)C2 : 17
O=C(CNc1cccc2c1CCN(CC1CC1)C2)N(CCN1CCCC(F)(F)C1)Cc1ncccc1C(F)(F)F : 11
CN(C)CCN(Cc1ccccc1C(F)(F)F)C(=O)CNc1cccc2c1CCN(C(=O)[C@H]1C[C@H]1F)C2 (single isomer, unassigned) [Example 363a] : 6

P. C#CCN(C)CCN(Cc1ccccc1C(F)(F)F)C(=O)CNc1cccc2c1CCN(CC1CC1)C2
Q. CC1c2cccc(NCC(=O)N(CCN(C)C)Cc3ccccc3C(F)(F)F)c2CCN1CC1CC1 (single isomer, unassigned) [Example 211b]
// compare: P vs Q , metric EC50, want the smaller Reply briefly: the label of your chosen item.
Q

a. CCCC(=O)N1CCc2c(cccc2NCC(=O)N(CCNC)Cc2ccccc2C(F)(F)F)C1
b. CN1CCC(N(Cc2ccccc2C(F)(F)F)C(=O)/C=C/c2cccc3c2CCN(CC2CC2)C3)CC1
Between a and b , which one shows the larger EC50 value? Reply briefly: the label of your chosen item.
a

---

- assayed target: CXCR7 (Homo sapiens)
- assay text: PathHunter CHO-K1 CXCR7 b-arrestin recruitment assay (CXCR7 agonistic activity)
- applied conditions: PathHunter CHO-K1 CXCR7 b-arrestin cell line
- Experimental: The CXCl12 receptor and CXCR7 agonistic activities of the compounds of formula (I) are determined in accordance with the following experimental method. The assay is using the PathHunter™ CHO-K1 CXCR7 b-arrestin cell line from DiscoverX. The system is based on the Enzyme Fragment Complementation Technology. Two complementing fragments of the b-galactosidase enzyme are expressed within stably transfected cells. […]
pEC50: −log10 of the molar value.
measured quantity: pEC50

The cases that follow already have their pEC50 on record.
COCCN1CCc2c(CCC(=O)N(CCN3CCC(F)(F)CC3)Cc3ncccc3C(F)(F)F)cccc2C1 : 6.56
CCN1CCc2c(/C=C/C(=O)N(CCN(C)C)Cc3ccccc3C(F)(F)F)cccc2C1 : 9.22
COCCN1CCc2c(cccc2NCC(=O)N(CCC(C)(C)O)Cc2ccccc2C(F)(F)F)C1 : 6.51

P. Cc1csc(CN(Cc2ccccc2C(F)(F)F)C(=O)CNc2cccc3c2CCN(CC2CC2)C3)n1
Q. CN(C)CCN(Cc1ccccc1C(F)(F)F)C(=O)CNc1cccc2c1CN(S(=O)(=O)c1ccccc1)CC2
R. CNCCN(Cc1ncccc1C(F)(F)F)C(=O)CNc1cccc2c1CCN(C(=O)C(C)C)C2
List the 3 entries from lowest pEC50 to highest pEC50 value. Note for the reader: the ranking is given by listing the labels in the order requested.
Q, P, R
(Q: 7.10, P: 7.34, R: 7.70)

---

- assayed target: CXCR7 (Homo sapiens, UniProt P25106)
- assay text: PathHunter CHO-K1 CXCR7 b-arrestin recruitment assay (CXCR7 agonistic activity)
- applied conditions: PathHunter CHO-K1 CXCR7 b-arrestin cell line
measured quantity: EC50 (nM)

The cases that follow already have their EC50 on record.
COCCN1CCc2c(cccc2NCC(=O)N(CCN(C)C)Cc2ccccc2C(F)(F)F)C1 [Example 359] : 9
CN(C)CCN(Cc1ccccc1C(F)(F)F)C(=O)CNc1cccc2c1CCN(c1nc(C(F)(F)F)cs1)C2 [Example 376] : 27
CN(C)CCN(Cc1ccccc1C(F)(F)F)C(=O)CNc1cccc2c1CCN(CC1CC1)C2=O [Example 315] : 5
CCOC(=O)N1CCc2c(cccc2NCC(=O)N(CCN(C)C)Cc2ccccc2)C1 [compound 117] : 79
CC(C)(C)OC(=O)N1CCC(N(Cc2ccccc2C(F)(F)F)C(=O)CNc2cccc3c2CCN(CC2CC2)C3)C1 (centres unmarked) [Example 254] : 161
CN(C)CCN(Cc1ccccc1Cl)C(=O)CNc1cc(C(F)(F)F)cc2c1CCN(CC1CC1)C2 [Example 295] : 411
CN(C)CCN(Cc1ccccc1F)C(=O)CNc1cccc2c1CCN(CC1CC1)C2 [Example 38] : 3
O=C(CNc1cccc2c1CCN(CC1CC1)C2)N(CCN1CCC(F)(F)CC1)Cc1ncccc1C(F)(F)F [Example 279] : 8
CN(C)CCN(Cc1ccccc1)C(=O)CNc1cccc2c1CN(Cc1ccccc1)CC2 [compound 193] : 48

A. COCCN1CCc2c(/C=C/C(=O)N(Cc3ccccc3C(F)(F)F)CC3(C)COC3)cccc2C1 [Example 324]
B. CN1CCCC1CCN(Cc1ccccc1C(F)(F)F)C(=O)CNc1cccc2c1CCN(CC1CC1)C2 (centres unmarked) [Example 213]
// compare: A vs B , metric EC50, want the smaller Reply briefly: the label of your chosen item.
B
(B: 2 nM, A: 243 nM)

---

- assayed target: CXCR7 (Homo sapiens)
- assay text: PathHunter CHO-K1 CXCR7 b-arrestin recruitment assay (CXCR7 agonistic activity)
- applied conditions: PathHunter CHO-K1 CXCR7 b-arrestin cell line
pEC50: −log10 of the molar value.
measured quantity: pEC50

CN(C)CCN(Cc1ccccc1C(F)(F)F)C(=O)CNc1cccc2c1CN(C(=O)C1CC1)CC2 : 8.30
CN(C)CCN(Cc1ncccc1Cl)C(=O)CNc1cccc2c1CN(C1CCC1)CC2 : 8.00
CCOC(=O)CN(Cc1ccccc1)C(=O)/C=C/c1cccc2c1CCN(C(=O)OC(C)(C)C)C2 : 6.34

P. CNCCN(Cc1ncccc1C(F)(F)F)C(=O)CNc1cccc2c1CCN(C(=O)OC(C)C)C2
Q. CCN1CCc2cccc(NCC(=O)N(CCN(C)C)Cc3cnc(N(C)C)nc3)c2C1
Between P and Q , which one shows the larger pEC50 value? Reply briefly: the label of your chosen item.
P
(P: 7.22, Q: 6.40)

---

- assayed target: CXCR7 (Homo sapiens, UniProt P25106)
- assay text: PathHunter CHO-K1 CXCR7 b-arrestin recruitment assay (CXCR7 agonistic activity)
- applied conditions: PathHunter CHO-K1 CXCR7 b-arrestin cell line
measured quantity: EC50 (nM)

The cases that follow already have their EC50 on record.
O=C(CNc1cccc2c1CCN(CC1CC1)C2)N(CCNCC(F)(F)F)Cc1ccccc1C(F)(F)F : 20
CN(C)CCN(Cc1ccccc1)C(=O)COc1cccc2c1CCN(C(=O)OC(C)(C)C)C2 : 148

A. CC(C)CN1CCc2c(cccc2NCC(=O)N(CCN(C)C)Cc2ccccc2)C1
B. CN1CCCC1CCN(Cc1ccccc1)C(=O)CNc1cccc2c1CCN(CC1CC1)C2 (racemic)
Between A and B , which one shows the larger EC50 value? Reply briefly: the label of your chosen item.
A

---

- assayed target: CXCR7 (Homo sapiens)
- assay text: PathHunter CHO-K1 CXCR7 b-arrestin recruitment assay (CXCR7 agonistic activity)
- applied conditions: PathHunter CHO-K1 CXCR7 b-arrestin cell line
measured quantity: EC50 (nM)

1. CN(C)CCN(CCc1cccc(C(F)(F)F)c1)C(=O)CNc1cccc2c1CCN(CC1CC1)C2
2. CCN1CCc2cccc(NCC(=O)N(CCN(C)C(=O)OC(C)(C)C)Cc3ccccc3)c2C1
3. COCCN1CCc2c(cccc2NCC(=O)N(CCN(C)C)Cc2ncccc2C(F)(F)F)C1
4. CC(C)N(C)CCN(Cc1ccccc1C(F)(F)F)C(=O)CNc1cccc2c1CCN(CC1CC1)C2
Parameters: sort_by = EC50; order = desc; input = items above. Note for the reader: the ranking is given by listing the labels in the order requested.
2, 1, 3, 4

1. O=C(CNc1cccc2c1CCN(CC1CC1)C2)N(Cc1ccccc1)C1CCNC1 (racemic)
2. CCCC(=O)N1CCc2c(cccc2NCC(=O)N(CCN(C)C)Cc2ccccc2)C1
Between 1 and 2 , which one shows the larger EC50 value? Reply briefly: the label of your chosen item.
2
(2: 36 nM, 1: 25 nM)

---

- assayed target: CXCR7 (Homo sapiens, UniProt P25106)
- assay text: PathHunter CHO-K1 CXCR7 b-arrestin recruitment assay (CXCR7 agonistic activity)
- applied conditions: PathHunter CHO-K1 CXCR7 b-arrestin cell line
pEC50: −log10 of the molar value.
measured quantity: pEC50

The cases that follow already have their pEC50 on record.
COCCN1CCc2c(CCC(=O)N(CCN(C)CCF)Cc3ccccc3C(F)(F)F)cccc2C1 : 6.96
CCC(=O)N1CCc2c(cccc2NCC(=O)N(CCN(C)C)Cc2ccccc2OC)C1 : 7.20
CCN(Cc1ccccc1Cl)C(=O)/C=C/c1cccc2c1CCN(CC1CC1)C2 : 7.26
CC(C)C(=O)N1CCc2c(cccc2NCC(=O)N(CCN(C)C)Cc2ccccc2)C1 : 7.27
CN(C)CCN(Cc1cncc(Cl)c1)C(=O)CNc1cccc2c1CCN(CC1CC1)C2 : 7.21
CN(C)CCN(Cc1ccc(F)cn1)C(=O)CNc1cccc2c1CCN(CC1CC1)C2 : 7.48

P. COCCN1CCc2c(cccc2NCC(=O)N(Cc2ncccc2Cl)CC(C)(C)O)C1
Q. CNCCN(Cc1ncccc1C(F)(F)F)C(=O)CNc1cccc2c1CCN(C(=O)CC(C)C)C2
R. O=C(CNc1cccc2c1CCN(CC1CC1)C2)N(CCN1CCC(F)(F)CC1)Cc1ccccc1Cl
S. O=C(CNc1cccc2c1CN(CC1CC1)CC2)N(CCN1CCCC1)Cc1ccccc1C(F)(F)F
T. O=C(CNc1cccc2c1CCN(CC1CC1)C2)N(CCOCc1ccccc1)Cc1ccccc1C(F)(F)F
Returns the items ordered by pEC50, from maximum to minimum. Note for the reader: the ranking is given by listing the labels in the order requested.
S, R, Q, T, P
(S: 8.40, R: 7.49, Q: 7.07, T: 6.80, P: 6.37)

a. CC(C)N1CCc2cccc(NCC(=O)N(CCN(C)C)Cc3ccccc3)c2C1
b. COC(=O)CN1CCc2c(cccc2NCC(=O)N(CCN(C)C)Cc2ncccc2C(F)(F)F)C1
Between a and b , which one shows the larger pEC50 value? Reply briefly: the label of your chosen item.
b
(b: 7.40, a: 7.04)
